Attribution: paper PMC6222718

Task for the reader: assign each of the following compounds its reported pEC50.
# System: 8505C (thyroid carcinoma)
# test.method.notes: SRB cytotoxicity assay, 8505C
# Format: cell-based, human
# test.conditions: Homo sapiens; SRB assay, 96 h of treatment, 8505C
Answers are plain numbers, as −log10 of the molar value.

Worked set:
compound	measurement.target	parameter.measured	observed
C=C(C)C1CC[C@]2(C(=O)NCCN3CCCCC3)CC[C@]3(C)C(CCC4[C@@]5(C)CC[C@H](OC(C)=O)C(C)(C)C5CC[C@]43C)C12 (stereo partly shown) [Compound 20]	8505C (thyroid carcinoma)	pEC50	5.52
C=C(C)C1CC[C@]2(C(=O)NCCN3CCCC3)CC[C@]3(C)C(CCC4[C@@]5(C)CC[C@H](OC(C)=O)C(C)(C)C5CC[C@]43C)C12 (stereo partly shown) [Compound 19]	8505C (thyroid carcinoma)	pEC50	5.80
CC(=O)O[C@H]1CC[C@@]2(C)C(CC[C@]3(C)C2CC=C2C4[C@@H](C)[C@H](C)CC[C@]4(C(=O)NCCN)CC[C@]23C)C1(C)C (stereo partly shown) [Compound 3]	8505C (thyroid carcinoma)	pEC50	5.39

Can you give me pEC50 for all of these, one by one?
1. C[C@@H]1CC[C@]2(C(=O)NCCOCCN)CC[C@]3(C)C(=CCC4[C@@]5(C)CC[C@H](O)C(C)(C)C5CC[C@]43C)C2[C@H]1C (stereo partly shown) [Compound 16]
2. C[C@H]1[C@H](C)CC[C@]2(C(=O)O)CC[C@]3(C)C(=CC[C@@H]4[C@@]5(C)CC[C@H](O)C(C)(C)[C@@H]5CC[C@]43C)[C@H]12 [UA, ursolic acid]
3. CC(=O)O[C@H]1CC[C@@]2(C)C(CC[C@]3(C)C2CC=C2C4[C@@H](C)[C@H](C)CC[C@]4(C(=O)NCCN4CCCCC4)CC[C@]23C)C1(C)C (stereo partly shown) [Compound 6]

4.97
4.87
4.81
